System: hexobarbital narcosis
Assay: narcosis potentiating effect (hexobarbital sleeping time)
Details: narcosis potentiation, mice, po.
MEASURE: TI (therapeutic index)

MOLECULE: COc1ccccc1/C=C1\CCCC\C1=N/OCC(O)CN1CCOCC1 (racemic)
RESULT: > 20
//
MOLECULE: COc1ccc(/C=C2\CCCCC\C2=N/OCC(O)CNC2CC2)cc1 (racemic)
RESULT: > 69
//
MOLECULE: CC(C)NCC(O)CO/N=C1\CCCC\C1=C/c1ccc(Cl)cc1 (stereo not shown) [Example 26]
RESULT: > 7
//
MOLECULE: CN1CCN(CC(O)CO/N=C2\CCCCCC\C2=C/c2ccccc2)CC1 (racemic)
RESULT: > 46.5
//
MOLECULE: OC(CO/N=C1\CCCCCC\C1=C/c1ccccc1)CN1CCOCC1 (racemic)
RESULT: > 40
//
MOLECULE: C#CC(C)(C)NCC(O)CO/N=C1\CCCC\C1=C/c1ccc(Cl)cc1 (racemic)
RESULT: > 40
//
MOLECULE: CCCN(CCC)CC(O)CO/N=C1\CCCC\C1=C/c1ccc(Cl)c(Cl)c1 (racemic)
RESULT: > 7

----------
System: peristalty of stomach and intestines
Experiment: effect exerted on the peristalty of stomach and intestines (Stickney et al., carbon suspension)
Format: in vivo, mouse
Conditions: antiperistaltic, po., mice

MOLECULE: OC(CO/N=C1\CCCC\C1=C/c1ccccc1)CN1CCN(c2ccc(Cl)cc2)CC1 (racemic)
TESTED ON: peristalty of stomach and intestines
TI (therapeutic index): about 5
//
MOLECULE: CC(C)N(CC(O)CO/N=C1\CCCC\C1=C/c1ccccc1)C(C)C (racemic)
TESTED ON: peristalty of stomach and intestines
TI (therapeutic index): about 5

----------
Test: acute toxicity test in mice (Litchfield and Wilcoxon)
Assay type: in vivo, mouse
Conditions: mouse, in vivo, po., 14 days observation
LD50 at 336 h: recorded values
MEASURE: LD50 at 336 h

MOLECULE: OC(CO/N=C1\CCCC\C1=C/c1ccccc1)CN1CCN(Cc2ccccc2)CC1 (racemic)
RESULT: > 1000 mg/kg
//
MOLECULE: OC(CO/N=C1\CCCC\C1=C/c1ccccc1)CN1CCN(c2ccccc2)CC1 (racemic)
RESULT: > 1000 mg/kg
//
MOLECULE: C#CC(C)(C)NCC(O)CO/N=C1\CCCC\C1=C/c1ccc(Cl)cc1 (racemic)
RESULT: > 2000 mg/kg
//
MOLECULE: CN1CCN(CC(O)CO/N=C2\CCCCCC\C2=C/c2ccccc2)CC1 (racemic)
RESULT: > 1000 mg/kg

----------
Test: acute toxicity test in mice (Litchfield and Wilcoxon)
Type: in vivo, mouse
Settings: mouse, in vivo, po., 14 days observation
MEASURE: LD50 at 336 h

COMPOUND: CN1CCN(CC(O)CO/N=C2\CCCCC\C2=C/c2ccccc2)CC1 (racemic) [Example 17]
RESULT: > 1000 mg/kg
--
COMPOUND: OC(CO/N=C1\CCCC\C1=C/c1ccccc1)CN1CCN(c2cccc(Cl)c2)CC1 (racemic) [Example 52]
RESULT: > 1000 mg/kg
--
COMPOUND: COc1cccc(/C=C2\CCCC\C2=N/OCC(O)CN2CCN(Cc3ccccc3)CC2)c1 (racemic) [Example 39]
RESULT: > 1000 mg/kg
--
COMPOUND: CC(C)NCC(O)CO/N=C1\CCCCCC\C1=C/c1ccccc1 (racemic) [Example 48]
RESULT: > 1000 mg/kg
